Here, each record is paired with measured relative growth in counter assay data.
Test system: HEK293FT dCK*-only
Assay: relative growth in counter assay (no AraC = 100%, AraC + DMSO = 0%); higher = more growth rescue independent of IKZF1
Conditions: compound concentration: 5 uM; AraC concentration: 0.3 uM; overnight pretreatment + 4 days AraC
Whole data set: some 1,000 compounds, median “relative growth in counter assay (no AraC = 100%, AraC + DMSO = 0%)” near -1.1, cut for the highest 2% near 20. The entries come from a sample that favours the highest values as a whole.
measured.endpoint: relative growth in counter assay (%)

{"compound": "Cc1ccc(Oc2ccc3c(c2)C(=O)N(c2ccc(C(N)=O)cc2)C3=O)cc1C", "measured.endpoint": "relative growth in counter assay", "result": 3.9}
{"compound": "COc1cc(NS(=O)(=O)c2ccc(NCc3ccccc3O)cc2)nc(OC)n1", "measured.endpoint": "relative growth in counter assay", "result": -0.72}
{"compound": "NCC(=O)N1CCC(c2cccc(Nc3ncc(Cl)s3)n2)CC1", "measured.endpoint": "relative growth in counter assay", "result": -23.9}
{"compound": "Cc1cc(C)nc(NS(=O)(=O)c2ccc(Nc3nc(-c4ccc(Cl)cc4)cs3)cc2)n1", "measured.endpoint": "relative growth in counter assay", "result": -7.62}
{"compound": "Cc1cnc(Nc2cccc(C3CN(C(=O)C(C)(C)C)CCO3)n2)s1 (configuration not stated)", "measured.endpoint": "relative growth in counter assay", "result": -10.3}
{"compound": "Cc1cnc(Nc2cccc(C3CCN(C(=O)C4C5C=CC(C5)C4C(=O)NCCO)CC3)n2)s1 (configuration not stated)", "measured.endpoint": "relative growth in counter assay", "result": -24.7}
{"compound": "COc1ccc(N2C(=O)c3ccc(Oc4ccccc4)cc3C2=O)cc1", "measured.endpoint": "relative growth in counter assay", "result": -22.4}

* * *

Tested on: HEK293FT dCK*-only
Experiment: relative growth in counter assay (no AraC = 100%, AraC + DMSO = 0%); higher = more growth rescue independent of IKZF1
Settings: compound concentration: 5 uM; AraC concentration: 0.3 uM; overnight pretreatment + 4 days AraC
In all, about 1,000 compounds were measured (“relative growth in counter assay (no AraC = 100%, AraC + DMSO = 0%)”: median about -1.1, highest 2% from about 20 on). This is one part of a sample in which the highest values are shown more often than they occur.
Here, each record is paired with measured relative growth in counter assay data.
measured.endpoint: relative growth in counter assay

{"compound": "Cc1cnc(Nc2cccc(C3CN(C(=O)Cc4ccccc4)CCO3)n2)s1 (centres undefined)", "measured.endpoint": "relative growth in counter assay", "result": "-5.45%"}
{"compound": "Cc1ccnc(NS(=O)(=O)c2ccc(NC(=O)C3c4ccccc4Oc4ccccc43)cc2)n1", "measured.endpoint": "relative growth in counter assay", "result": "-3.45%"}
{"compound": "Cc1cc(C)nc(NS(=O)(=O)c2ccc(NC(=O)CCl)cc2)n1", "measured.endpoint": "relative growth in counter assay", "result": "23.6%"}
{"compound": "O=[N+]([O-])c1ccc(S(=O)(=O)Nc2ccc(S(=O)(=O)Nc3ncccn3)cc2)cc1", "measured.endpoint": "relative growth in counter assay", "result": "0.33%"}
{"compound": "O=C(O)CCOCCOCCNc1ccc2c(c1)C(=O)N(C1CCC(=O)NC1=O)C2=O (centres undefined)", "measured.endpoint": "relative growth in counter assay", "result": "-0.35%"}
{"compound": "CC(C)CC(=O)N1CCCC1c1csc(Nc2ccccn2)n1 (centres undefined)", "measured.endpoint": "relative growth in counter assay", "result": "-4%"}
{"compound": "CC(C)(N)C(=O)N1CCC(c2cccc(Nc3ncc(-c4cccnc4)s3)n2)CC1", "measured.endpoint": "relative growth in counter assay", "result": "-23.8%"}
{"compound": "Cc1csc(Nc2cccc(C3CCCN3C(=O)c3cnc(C)nc3C)n2)n1 (centres undefined)", "measured.endpoint": "relative growth in counter assay", "result": "-4.08%"}
{"compound": "O=[N+]([O-])c1ccc(S(=O)(=O)Nc2ccccn2)cc1", "measured.endpoint": "relative growth in counter assay", "result": "-0.83%"}
{"compound": "Cc1ccnc(NS(=O)(=O)c2ccc(NC(=O)Cc3c(F)cccc3Cl)cc2)n1", "measured.endpoint": "relative growth in counter assay", "result": "10%"}
{"compound": "O=C(O)CCOCCOCCOCCNc1cc2c(cc1F)C(=O)N(C1CCC(=O)NC1=O)C2=O (centres undefined)", "measured.endpoint": "relative growth in counter assay", "result": "0.94%"}
{"compound": "Cc1ccccc1N1C(=O)c2ccc(Oc3ccc(N)cc3)cc2C1=O", "measured.endpoint": "relative growth in counter assay", "result": "12.7%"}
{"compound": "Cc1csc(Nc2cccc(C3CCCN3C(=O)c3ccc4c(c3)CCCN4C)n2)n1 (centres undefined)", "measured.endpoint": "relative growth in counter assay", "result": "13.3%"}
{"compound": "Cc1ccc2[nH]nc(C(=O)N3CCCC3c3cccc(Nc4nc(C)cs4)n3)c2c1 (centres undefined)", "measured.endpoint": "relative growth in counter assay", "result": "2.1%"}
